# TESTED_TARGET: IRAK4 (Homo sapiens, UniProt Q9NWZ3)
# Construct: endogenous in cells; host or cells: Karpas299
# Sequence (Q9NWZ3 whole entry): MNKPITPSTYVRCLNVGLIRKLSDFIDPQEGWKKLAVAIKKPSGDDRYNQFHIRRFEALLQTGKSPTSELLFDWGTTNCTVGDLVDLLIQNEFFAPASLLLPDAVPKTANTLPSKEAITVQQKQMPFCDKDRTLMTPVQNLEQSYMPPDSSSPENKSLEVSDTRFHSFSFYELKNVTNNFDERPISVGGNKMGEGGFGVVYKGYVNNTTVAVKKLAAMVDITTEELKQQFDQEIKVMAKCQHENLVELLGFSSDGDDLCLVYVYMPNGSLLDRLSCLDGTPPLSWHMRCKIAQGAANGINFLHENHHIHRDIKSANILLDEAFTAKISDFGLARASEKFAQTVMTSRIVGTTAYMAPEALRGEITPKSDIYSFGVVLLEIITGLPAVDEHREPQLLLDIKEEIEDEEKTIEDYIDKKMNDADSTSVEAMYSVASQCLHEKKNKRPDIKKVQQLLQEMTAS
# EXPERIMENT_DESCRIPTION: IRAK4 Degradation Assay (Karpas299, HTRF/TR-FRET)
# Assay type: cell-based
# ASSAY_CONDITIONS: Karpas-299 cells, 5 h treatment; maximum percentage of degradation; read-out: IRAK4 in Karpas-299 (5 h) Dmax (%)
# Description: IRAK4 degradation was measured using a TR-FRET-based method (Degorce, François, et al. Current chemical genomics. 2009, 3: 22). […] IRAK4 level was quantitated using the HTRF kit as described by the manufacturer manual (Cisbio). FRET signals were measured using a PHERAstar FSX reader (BMG Labtech). […] The inhibition (degradation) percentage of the compound was calculated by the following equation: […]
PROPERTY_LABEL: Dmax

>>> result_value("CC(C)(O)c1cc2nn([C@H]3CC[C@H](N4CCN(C(=O)C5CN(c6cc(F)c([C@H]7CCC(=O)NC7=O)c(F)c6)C5)CC4)CC3)cc2cc1NC(=O)c1cccn(C2CC2)c1=O")
"61%"
>>> result_value("[2H]C([2H])([2H])Oc1cc2nn([C@H]3CC[C@H](N4CCN(C(=O)[C@@H]5CCN(c6cc(F)c([C@H]7CCC(=O)NC7=O)c(F)c6)C5)CC4)CC3)cc2cc1NC(=O)c1cccc(C(F)(F)F)n1")
"95%"
>>> result_value("O=C1CCN(c2c(F)cc(N3CC(C(=O)N4CCN([C@H]5CC[C@H](n6cc(NC(=O)c7cnn(-c8ccnc(NCC9CC9)c8)n7)c(C(F)F)n6)CC5)CC4)C3)cc2F)C(=O)N1")
"86%"
>>> result_value("O=C1CC[C@H](c2c(F)cc(N3CC[C@@H](C(=O)N4CCN([C@H]5CC[C@H](n6cc(NC(=O)c7coc(-c8ccnc(NCC(F)(F)F)c8)n7)c(C(F)F)n6)CC5)CC4)C3)cc2F)C(=O)N1")
"96%"
>>> result_value("CC1(C)CN(c2cc(F)c([C@H]3CCC(=O)NC3=O)c(F)c2)C[C@@H]1C(=O)N1CCN([C@H]2CC[C@H](n3cc(NC(=O)c4coc(-c5ccnc(NCC(F)(F)F)c5)n4)c(C(F)F)n3)CC2)CC1")
"95%"
>>> result_value("CC(C)(O)c1cc2nn([C@H]3CC[C@H](N4CCN(C(=O)C5CN(c6ccc(N7CCC(=O)NC7=O)cc6)C5)CC4)CC3)cc2cc1NC(=O)c1cccc(C(F)(F)F)n1")
"89%"
>>> result_value("O=C1CCN(c2ccc(N3CC(C(=O)N4CCN([C@H]5CC[C@H](n6cc(NC(=O)c7coc(-c8ccnc(NCC(F)(F)F)c8)n7)c(C(F)F)n6)CC5)CC4)C3)cc2)C(=O)N1")
"84%"
>>> result_value("CC(C)(O)c1cc2nn(C34CCC(N5CCN(C6CCN(c7cc(F)c([C@H]8CCC(=O)NC8=O)c(F)c7)CC6)CC5)(CC3)CC4)cc2cc1NC(=O)c1ccc2cc(C#N)cnn12")
"98%"
>>> result_value("[2H]C([2H])([2H])Oc1cc2nn([C@H]3CC[C@H](N4CCN(C(=O)C5CN(c6cc(F)c(N7CCC(=O)NC7=O)c(F)c6)C5)CC4)CC3)cc2cc1NC(=O)c1cccc(C(F)(F)F)n1")
"99%"
>>> result_value("COc1cc2nn([C@H]3CC[C@H](CN4CCN(C(=O)[C@@H]5CCN(c6ccc(N7CCC(=O)NC7=O)cc6)C5)CC4)CC3)cc2cc1NC(=O)c1cccn(C2CC2)c1=O")
"81%"
